- protocolNotes: Stability test: storage in nitrogen-filled sealed bottles, purity test by HPLC every month
- Assay type: physicochemical
- recordedConditions: Table 1, stored at −20° C., 1 month
Listed here: items and their measured purity by HPLC, Time (month) 1.
metricName: purity by HPLC, Time (month) 1

compound	quantitativeReadout
NC(=O)c1ccc[n+]([C@@H]2O[C@H](CO)[C@@H](O)[C@H]2O)c1.O=C([O-])C[C@H](O)C(=O)O [Example 3, malate of NR (1:1)]	98.691
NC(=O)c1ccc[n+]([C@@H]2O[C@H](CO)[C@@H](O)[C@H]2O)c1.O=C(O)CC(O)(CC(=O)O)C(=O)[O-] [Example 1, citrate of NR (1:1)]	98.828
NC(=O)c1ccc[n+]([C@@H]2O[C@H](CO)[C@@H](O)[C@H]2O)c1.O=C(O)CC(O)(CC(=O)O)C(=O)O.O=C(O)CC(O)(CC(=O)O)C(=O)[O-] [Example 2, citrate of NR (1:2)]	98.317
NC(=O)c1ccc[n+]([C@@H]2O[C@H](CO)[C@@H](O)[C@H]2O)c1.[Cl-] [Comparative Example, chlorine salt of NR, reference compound]	98.284
NC(=O)c1ccc[n+]([C@@H]2O[C@H](CO)[C@@H](O)[C@H]2O)c1.O=C(O)C[C@H](O)C(=O)O.O=C([O-])C[C@H](O)C(=O)O [Example 4, malate of NR (1:2)]	98.547

Origin of measurements: patent US11505570B2
